- Method notes: Toxicity liver stage against HepG2, at 10uM
- Type: cell-based
- Set-up: test concentration 10 uM, cell line HepG2-A16-CD81EGFP
- Reported conditions: human, HepG2-A16-CD81EGFP cells; read-out: INHIBITION
Quantity name: cytotoxicity at 10 µM (%)
All answers are understood in %, so give the number only.

Worked examples, 5 compounds total:
{"Compound": "CC1CN(C)CCN1C(=O)c1cnc2c(cnn2C2CCCC2)c1 (stereo not drawn)", "Unit symbol": "%", "cytotoxicity at 10 µM": -12.8}
{"Compound": "Cc1cccc(OCCC(=O)NCC(C)(C)C(N)=O)c1", "Unit symbol": "%", "cytotoxicity at 10 µM": -6.38}
{"Compound": "CCN(C)CC1CCN(c2ncc(Br)cn2)C1 (stereo not drawn)", "Unit symbol": "%", "cytotoxicity at 10 µM": -2.55}
{"Compound": "CC(C)CC(=O)N1CCC(Nc2nc(O)cc(-c3ccsc3)n2)CC1", "Unit symbol": "%", "cytotoxicity at 10 µM": 11.3}
{"Compound": "c1cc2c(cc1CN1CCN(Cc3noc(C4CC4)n3)CC1)OCO2", "Unit symbol": "%", "cytotoxicity at 10 µM": 15.8}

Please report the recorded cytotoxicity at 10 µM for Cc1cnn(CC(C)NCc2nc(-c3cccs3)no2)c1 (stereo not drawn) .
-7.64

Please report the recorded cytotoxicity at 10 µM for COc1cc(CC(O)CC#N)c(OC)c2c1OCO2 (stereo not drawn) .
-6.32

Please report the recorded cytotoxicity at 10 µM for O=C(NCCN1CCOCC1)c1cc(-c2ccc(Cl)s2)[nH]n1 .
-6.58

Please report the recorded cytotoxicity at 10 µM for CCC(SC)C(=O)N1CCC(n2cccn2)CC1 (stereo not drawn) .
-45.8

Please report the recorded cytotoxicity at 10 µM for CN1CCN(C2CCN(Cc3noc(C(C)(C)C)n3)CC2)C1=O .
17.1

Please report the recorded cytotoxicity at 10 µM for Cc1cc(C)c2c(OCC(=O)NCC(O)C(F)(F)F)nn(C)c2n1 (stereo not drawn) .
1.3

Please report the recorded cytotoxicity at 10 µM for c1cnc(N2CCO[C@H]3CN(Cc4ccsc4)C[C@H]32)nc1 .
-82

Please report the recorded cytotoxicity at 10 µM for COc1ccc2[nH]cc(C(=O)N3C[C@@H](O)[C@H](NS(C)(=O)=O)C3)c2c1 .
-9.26

Please report the recorded cytotoxicity at 10 µM for NC(=O)Cn1nc(-c2ccccc2F)ccc1=O .
-7.69

Please report the recorded cytotoxicity at 10 µM for Cc1noc(C2CCN(C(=O)CCCNc3ncccn3)CC2)n1 .
-6.69

Please report the recorded cytotoxicity at 10 µM for CCN(CC)c1ncc(Cl)c(C(=O)NC2CC2)n1 .
-33.5

Please report the recorded cytotoxicity at 10 µM for CC1c2ncc(Cn3cccn3)n2CCN1S(C)(=O)=O (stereo not drawn) .
-99.2

Please report the recorded cytotoxicity at 10 µM for CC(C)CN1C(=O)CC[C@H]2CN(C(=O)Cn3ccccc3=O)CC[C@H]21 .
-7.37

Please report the recorded cytotoxicity at 10 µM for O=C(CCN1CCCCO1)NCCSc1cnn[nH]1 .
0.956

Please report the recorded cytotoxicity at 10 µM for Cc1cnn(CC2CCCCN2C(=O)c2cccnc2N(C)C)c1 (stereo not drawn) .
-7.37

Please report the recorded cytotoxicity at 10 µM for Cn1cnc(S(=O)(=O)NCCN2CCCCCC2=O)c1Cl .
-14.2

Please report the recorded cytotoxicity at 10 µM for CCc1c(C)sc2ncnc(N3C[C@H](O)[C@@H](N4CCCC4)C3)c12 .
-4.36

Please report the recorded cytotoxicity at 10 µM for c1coc(CN2CCO[C@@]3(CCC[C@@H]3COCc3nccs3)C2)c1 .
-73.5

Please report the recorded cytotoxicity at 10 µM for Cn1cc(-c2ncnc3c2CCN(C(=O)N2CCOCC2)CC3)cn1 .
-11.3

Please report the recorded cytotoxicity at 10 µM for c1cc(-c2noc(-c3cc(C4CC4)[nH]n3)n2)cc(N2CCCCC2)n1 .
3.05
